# Tested On: T1, NHERF3_1, Q5T2W1
# T1 sequence (Q5T2W1 4-100, limits assumed, looked up): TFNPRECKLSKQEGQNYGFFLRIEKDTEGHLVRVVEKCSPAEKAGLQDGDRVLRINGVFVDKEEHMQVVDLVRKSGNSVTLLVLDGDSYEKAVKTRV
# Assay Explanation: holdup assay
# Set-up: key: below the threshold = too weak to quantify, mostly under pKd 3.1 to 4
# Run Parameters: plain residues with an end cap or a label only (N-terminal biotin on a linker: ttds)
Measured Attribute: pKd

>>> measured_number("GARVSKETPL [MAPK12, P53778]")
5.56
>>> measured_number("SSIDLWETAL [SLC15A5, A6NIM6]")
6.25
>>> measured_number("PPRQRSETQV [HPV82-E6, Q9IR59]")
4.03
>>> measured_number("SHSSKGETAV [FZD7, O75084]")
4.22
>>> measured_number("NPDALPETLV [ARHGAP6, O43182]")
4.55
>>> measured_number("KQVVPFSSSV [GDA, Q9Y2T3]")
4.31
